Biological target: mouse ADAMTS7 (Mus musculus, UniProt Q68SA9)
Construct: Full-length mouse Adamts7 1-1857 (Uniprot Q68SA9, WT or E373Q catalytic mutant); expressed in transfected cells; host or cells: Human Coronary Artery Smooth Muscle Cells (HCA-SMC, Lonza), adenovirus 50 MOI
Sequence (Q68SA9 221-1657): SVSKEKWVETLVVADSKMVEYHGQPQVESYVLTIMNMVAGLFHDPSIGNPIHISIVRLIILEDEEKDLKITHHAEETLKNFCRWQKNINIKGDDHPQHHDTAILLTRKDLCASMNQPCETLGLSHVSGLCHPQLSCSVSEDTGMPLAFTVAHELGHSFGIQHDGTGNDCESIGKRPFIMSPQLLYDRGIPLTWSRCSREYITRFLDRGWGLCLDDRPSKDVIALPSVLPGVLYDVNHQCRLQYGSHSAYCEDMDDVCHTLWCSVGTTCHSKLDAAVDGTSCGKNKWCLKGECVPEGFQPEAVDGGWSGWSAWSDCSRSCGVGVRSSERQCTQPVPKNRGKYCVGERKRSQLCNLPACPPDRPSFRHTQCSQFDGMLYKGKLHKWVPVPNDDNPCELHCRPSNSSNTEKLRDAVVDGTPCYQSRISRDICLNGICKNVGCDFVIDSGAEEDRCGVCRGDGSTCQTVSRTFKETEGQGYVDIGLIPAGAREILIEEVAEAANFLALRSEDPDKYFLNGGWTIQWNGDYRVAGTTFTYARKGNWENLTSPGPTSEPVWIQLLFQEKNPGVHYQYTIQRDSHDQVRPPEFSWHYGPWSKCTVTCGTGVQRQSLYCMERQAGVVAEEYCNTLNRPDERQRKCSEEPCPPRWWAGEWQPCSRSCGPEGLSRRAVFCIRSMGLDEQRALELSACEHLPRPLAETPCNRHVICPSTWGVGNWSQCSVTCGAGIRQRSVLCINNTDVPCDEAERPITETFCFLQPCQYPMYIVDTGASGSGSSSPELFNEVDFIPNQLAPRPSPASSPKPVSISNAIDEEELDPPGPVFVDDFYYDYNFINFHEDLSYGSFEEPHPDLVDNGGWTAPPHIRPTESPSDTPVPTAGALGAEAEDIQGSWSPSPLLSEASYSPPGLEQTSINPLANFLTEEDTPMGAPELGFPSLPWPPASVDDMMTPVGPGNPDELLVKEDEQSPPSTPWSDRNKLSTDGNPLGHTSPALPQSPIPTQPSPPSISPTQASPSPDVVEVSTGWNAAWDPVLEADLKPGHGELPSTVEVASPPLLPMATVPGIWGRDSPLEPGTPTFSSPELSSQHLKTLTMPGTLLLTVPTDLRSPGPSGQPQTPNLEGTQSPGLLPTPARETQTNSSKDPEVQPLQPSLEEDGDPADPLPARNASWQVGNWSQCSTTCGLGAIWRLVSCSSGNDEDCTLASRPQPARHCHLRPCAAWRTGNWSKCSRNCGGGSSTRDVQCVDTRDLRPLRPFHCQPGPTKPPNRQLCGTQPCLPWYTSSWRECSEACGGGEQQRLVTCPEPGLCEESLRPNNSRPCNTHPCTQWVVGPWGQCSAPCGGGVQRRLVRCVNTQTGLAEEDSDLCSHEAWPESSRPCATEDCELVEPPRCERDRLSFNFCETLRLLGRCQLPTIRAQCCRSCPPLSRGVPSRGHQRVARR
Experiment: TMT10 TAILS N-terminomics, HUVEC experiment (process replicates, trypsin/AspN digest)
Assay type: cell-based, human
Conditions: HUVEC TAILS HC; log fold change of N-terminal peptide, Ad-mADAMTS7 WT over Luc
Property Name: logFC.mWT.over.Luc
Respond using a number only.

Field request: logFC.mWT.over.Luc | item: FN1_1780 (LQGLRPGSEYTVSVVALH; listed as Homo sapiens)
1.80

Field request: logFC.mWT.over.Luc | item: LTBP3_221 (VQAPPPVVNVR; listed as Homo sapiens)
2.72

Field request: logFC.mWT.over.Luc | item: IGFBP7_101 (AAGGPGVSGVCVCKSR; listed as Homo sapiens)
1.86
